Cited source: ChEMBL document CHEMBL3739316

- System: Mus musculus
- Protocol: Dose normalized AUC in orally dosed mouse
- Assay type: ADME, organism-based
- Condition Notes: in vivo, po
Entries and their AUC/dose values follow.
Numbers only here, please. The scale is µM·kg·h/mg.

A selection of reference data follows.
Compound String: CN[C@@](C)(CO[C@H]1[C@H](n2nnc(N)n2)C[C@@]23COCC1(C)[C@@H]2CC[C@H]1C3=CC[C@@]2(C)[C@H](C(=O)O)[C@@](C)([C@H](C)C(C)C)CC[C@]12C)C(C)C
AUC/dose / µM·kg·h/mg: 0.12
--
Compound String: CC(C)[C@@H](C)[C@@]1(C)CC[C@]2(C)[C@H]3CC[C@H]4C5(C)COC[C@@]4(C[C@@H](n4nnc(N)n4)[C@@H]5OC[C@](C)(N)C(C)C)C3=CC[C@@]2(C)[C@@H]1C(=O)O
AUC/dose / µM·kg·h/mg: 0.14
--
Compound String: CC(C)[C@@H](C)[C@@]1(C)CC[C@]2(C)[C@H]3CC[C@H]4C5(C)COC[C@@]4(C[C@@H](n4nnc(N)n4)[C@@H]5OC[C@@](C)(C(C)C)N(C)C)C3=CC[C@@]2(C)[C@@H]1C(=O)O
AUC/dose / µM·kg·h/mg: 0.15
--
Compound String: CCN[C@@](C)(CO[C@H]1[C@H](n2nnc(N)n2)C[C@@]23COCC1(C)[C@@H]2CC[C@H]1C3=CC[C@@]2(C)[C@H](C(=O)O)[C@@](C)([C@H](C)C(C)C)CC[C@]12C)C(C)C
AUC/dose / µM·kg·h/mg: 0.44

Then this molecule:
Ask | Check the records and state AUC/dose for CC(=O)O[C@@H]1C[C@@]23COCC(C)([C@H]1OC[C@](C)(N)C(C)C)[C@@H]2CC[C@H]1C3=CC[C@@]2(C)[C@H](C(=O)O)[C@@](C)([C@H](C)C(C)C)CC[C@]12C
Reply | 1.38
